- Target Under Test: Phospholipid hydroperoxide glutathione peroxidase GPX4 (Homo sapiens) (UniProt P36969)
- Sequence (P36969 whole entry, looked up): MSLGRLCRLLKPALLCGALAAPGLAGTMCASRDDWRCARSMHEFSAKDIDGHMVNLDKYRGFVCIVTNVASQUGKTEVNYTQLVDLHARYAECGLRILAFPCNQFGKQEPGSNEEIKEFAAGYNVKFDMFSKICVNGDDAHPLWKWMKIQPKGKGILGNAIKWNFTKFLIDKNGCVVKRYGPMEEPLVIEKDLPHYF
- Assay Summary: Primary qHTS Assay for Inhibitors of Recombinant Selenoprotein Glutathione Peroxidase 4 (GPX4) (AID 1845192); note: nearly all actives have a fitted effect of over 65% in size
- Recorded Conditions: recombinant GPX4, GR-coupled NADPH fluorescence, 15 min; series mostly up to 50 µM
Results filed as inconclusive are left out. Calls of active or inactive are those of the source. Calls come from the whole dose curve; as a rule, active = well fitted inhibition curve with a large enough effect; inconclusive = small, poorly fitted or top-dose-only effect; inactive = flat fitted curve, though single readings scatter.
Reported Metric: outcome

>>> obs_value("C[C@@H]1O[C@@H](O[C@H]2[C@H](OC(=O)[C@]34CCC(C)(C)C[C@H]3C3=CCC5[C@@]6(C)C[C@H](O)[C@H](O[C@@H]7O[C@H](CO)[C@@H](O)[C@H](O)[C@H]7O)[C@@](C)(CO)C6[C@H](O)C[C@@]5(C)[C@]3(C)CC4)OC[C@H](O)[C@@H]2O)[C@H](O)[C@H](O)[C@H]1O[C@@H]1OC[C@@H](O)[C@H](O[C@@H]2OC[C@](O)(CO)[C@H]2O)[C@H]1O (stereo partly drawn)")
"inactive [at 9.73 µM]"
>>> obs_value("C[C@@H]1O[C@@H](O[C@H]2[C@H](OC(=O)[C@]34CCC(C)(C)C[C@H]3C3=CCC5[C@@]6(C)C[C@H](O)[C@H](O[C@@H]7O[C@H](CO)[C@@H](O[C@H]8OC[C@](O)(CO)[C@H]8O)[C@H](O)[C@H]7O)[C@@](C)(CO)C6[C@H](O)C[C@@]5(C)[C@]3(C)C[C@H]4O)OC[C@H](O)[C@@H]2O)[C@H](O)[C@H](O)[C@H]1O[C@@H]1OC[C@@H](O)[C@H](O[C@@H]2OC[C@](O)(CO)[C@H]2O)[C@H]1O (stereo partly drawn)")
"inactive [at 9.73 µM]"
>>> obs_value("CC1(C)CC[C@]2(C(=O)O[C@@H]3O[C@H](CO[C@@H]4O[C@H](CO)[C@@H](O)[C@H](O)[C@H]4O[C@@H]4O[C@H](CO)[C@H](O)[C@H](O)[C@H]4O)[C@@H](O)[C@H](O[C@@H]4O[C@H](CO)[C@@H](O)[C@H](O)[C@H]4O)[C@H]3O)CC[C@]3(C)C(=CCC4[C@@]5(C)CC[C@H](O[C@@H]6OC[C@@H](O)[C@H](O)[C@H]6O)[C@@](C)(C(=O)O)C5CC[C@]43C)[C@@H]2C1 (stereo partly drawn)")
"inactive [at 9.73 µM]"
